Field: Bliss excess. Provide a value for each of the compounds that follow.
Tested on: HeLa (Cervical Carcinoma);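 note: after 72 h of two-drug dosing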
TEST DETAILS: Bliss excess, mean over the matrix (fraction); higher = more synergy
// return a plain number; no unit text

Here CC1(C)CCC(CN2CCN(c3ccc(C(=O)NS(=O)(=O)c4ccc(NCC5CCOCC5)c([N+](=O)[O-])c4)c(Oc4cnc5[nH]ccc5c4)c3)CC2)=C(c2ccc(Cl)cc2)C1 [Venetoclax] + Cn1cnc2c(F)c(Nc3ccc(Br)cc3Cl)c(C(=O)NOCCO)cc21 [Selumetinib] (first compound max 1 µM, 7x7, partner max 3 µM) was tested on HeLa (Cervical Carcinoma), and its Bliss excess came to -0.0369

Here C=CCn1c(=O)c2cnc(Nc3ccc(N4CCN(C)CC4)cc3)nc2n1-c1cccc(C(C)(C)O)n1 [AZD1775] + O=C(c1cc(Cc2n[nH]c(=O)c3ccccc23)ccc1F)N1CCN(C(=O)C2CC2)CC1 [Olaparib] (first compound max 1 µM, partner max 10 µM) was tested on HeLa (Cervical Carcinoma), and its Bliss excess came to 0.0346

Here Cc1c2c(nn1C)CSCc1cc(n(C)n1)CSc1cc(c3ccccc3c1)OCCCc1c(C(=O)O)n(C)c3c-2c(Cl)ccc13 [AZD5991] + C[C@@H](Nc1cc(F)cc(F)c1)c1cc(C(=O)N(C)C)cc2c(=O)cc(N3CCOCC3)oc12 [AZD8186] (first compound max 1 µM, 7x7, partner max 3 µM) was tested on HeLa (Cervical Carcinoma), and its Bliss excess came to 0.0387

Here C=CCn1c(=O)c2cnc(Nc3ccc(N4CCN(C)CC4)cc3)nc2n1-c1cccc(C(C)(C)O)n1 [AZD1775] + C[C@@H]1COCCN1C2=NC(=NC(=C2)C3(CC3)[S@](=N)(=O)C)C4=C5C=CNC5=NC=C4 [AZD6738] (first compound max 1 µM, partner max 10 µM) was tested on HeLa (Cervical Carcinoma), and its Bliss excess came to 0.0883
